Target: recombinant human MAO-B (monoamine oxidase-B) (Homo sapiens, UniProt P27338)
Construct: purchased Sigma-Aldrich
Sequence (P27338 1-520): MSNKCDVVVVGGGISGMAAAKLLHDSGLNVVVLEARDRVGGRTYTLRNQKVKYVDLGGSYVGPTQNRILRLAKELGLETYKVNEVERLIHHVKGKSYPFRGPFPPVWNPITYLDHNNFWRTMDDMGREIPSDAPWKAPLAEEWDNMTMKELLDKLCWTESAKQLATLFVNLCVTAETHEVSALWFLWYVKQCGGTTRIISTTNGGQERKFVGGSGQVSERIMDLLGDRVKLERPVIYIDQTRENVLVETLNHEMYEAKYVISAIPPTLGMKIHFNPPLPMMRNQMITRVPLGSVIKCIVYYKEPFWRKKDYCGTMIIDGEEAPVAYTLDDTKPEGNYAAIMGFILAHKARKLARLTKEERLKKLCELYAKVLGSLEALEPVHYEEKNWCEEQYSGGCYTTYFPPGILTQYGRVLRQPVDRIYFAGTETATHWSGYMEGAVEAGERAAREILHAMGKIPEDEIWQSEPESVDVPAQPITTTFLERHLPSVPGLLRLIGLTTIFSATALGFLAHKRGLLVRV
Assay: Activity on recombinant human MAO-B, method similar to the VAP-1 assay
Assay type: biochemical
Settings: substrate 1 mM benzylamine; read-out: Inhibitory Activity (IC50, nM) MAO-B
Structures can show the parent of a compound that is named as a salt.
Flag rule - IC50 less than 2000 nM flags true (1); the remaining entries get false (0).

- compound: "CN1CCC(n2cc(-c3ccc(Cn4cnn(C/C(=C/F)CN)c4=O)s3)cn2)CC1"
  classification: "false (0)"
- compound: "CC(C)Oc1ccc(-c2ccc(Cn3cnn(C/C(=C/F)CN)c3=O)s2)cn1"
  classification: "true (1)"
- compound: "CS(=O)(=O)CCn1cc(-c2ccc(Cn3cnn(C/C(=C/F)CN)c3=O)s2)ccc1=O"
  classification: "false (0)"
- compound: "CN(C)c1ccc(C#Cc2ccc(Cn3cnn(C/C(=C/F)CN)c3=O)s2)cn1"
  classification: "true (1)"
- compound: "NC/C(=C\\F)Cn1ncn(Cc2ccc(-c3cnc4c(c3)COC(=O)N4)s2)c1=O"
  classification: "false (0)"
- compound: "NC/C(=C\\F)Cn1ncn(Cc2ccc(-c3cc(F)c4c(c3)CC(=O)N4)s2)c1=O [Example 71, hydrochloride]"
  classification: "false (0)"
- compound: "NC/C(=C\\F)Cn1ncn(Cc2ccc(-c3ccc4c(c3)CC(=O)N4)s2)c1=O [Example 69, hydrochloride]"
  classification: "true (1)"
- compound: "NC/C(=C\\F)Cn1ncn(Cc2ccc(-c3ccc4c(c3)SCC(=O)N4)s2)c1=O [Example 85, hydrochloride]"
  classification: "true (1)"

====

IC50 by entry:
biological target: recombinant human MAO-A (monoamine oxidase-A) (Homo sapiens); construct: purchased Sigma-Aldrich; experiment: Activity on recombinant human MAO-A, method similar to the VAP-1 assay; format: biochemical; conditions: substrate 0.5 mM tyramine; read-out: Inhibitory Activity (IC50, nM) MAO-A
Sequence (P21397 whole entry): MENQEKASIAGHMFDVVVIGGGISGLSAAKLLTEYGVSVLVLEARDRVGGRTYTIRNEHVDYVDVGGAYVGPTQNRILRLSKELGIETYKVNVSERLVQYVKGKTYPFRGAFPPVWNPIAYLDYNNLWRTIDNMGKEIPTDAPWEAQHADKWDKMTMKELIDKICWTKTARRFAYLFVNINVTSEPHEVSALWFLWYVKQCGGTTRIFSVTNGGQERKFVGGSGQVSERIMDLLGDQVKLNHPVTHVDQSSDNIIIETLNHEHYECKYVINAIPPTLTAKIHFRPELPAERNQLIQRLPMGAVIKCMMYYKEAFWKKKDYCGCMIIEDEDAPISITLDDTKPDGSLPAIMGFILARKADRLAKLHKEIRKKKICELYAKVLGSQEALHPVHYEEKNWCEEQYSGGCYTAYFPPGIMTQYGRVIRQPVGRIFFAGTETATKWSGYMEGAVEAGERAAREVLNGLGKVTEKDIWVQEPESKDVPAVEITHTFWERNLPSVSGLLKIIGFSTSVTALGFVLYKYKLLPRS
Counter-ions that a name gives are not always drawn.
measurementLabel: IC50

- compound: "NC/C(=C\\F)Cn1ncn(Cc2ccc(-c3ccc(N4CCCC4)cc3)s2)c1=O [Example 20, hydrochloride]"
  value: "6600 nM"
- compound: "NC/C(=C\\F)Cn1ncn(CCc2cccs2)c1=O"
  value: "> 100000 nM"
- compound: "CN(C)C(=O)c1cccc(-c2ccc(Cn3cnn(C/C(=C/F)CN)c3=O)s2)c1"
  value: "> 100000 nM"
- compound: "NC/C(=C\\F)Cn1ncn(Cc2ccc(-c3cccc(-c4cc[nH]n4)c3)s2)c1=O"
  value: "> 100000 nM"
- compound: "COCCOc1ccc(-c2ccc(Cn3cnn(C/C(=C/F)CN)c3=O)s2)cc1 [Example 19, hydrochloride]"
  value: "> 100000 nM"
- compound: "NC/C(=C\\F)Cn1ncn(Cc2ccc(-c3ccc(N4CCCCC4)nc3)s2)c1=O [Example 52, hydrochloride]"
  value: "> 100000 nM"
- compound: "NC/C(=C/F)Cn1ncn(Cc2ccc(-c3ccc4nonc4c3)s2)c1=O [Example 61, hydrochloride]"
  value: "16000 nM"
- compound: "CN(C)c1ccc(-c2ccc(Cn3cnn(C/C(=C/F)CN)c3=O)s2)cn1 [Example 42, hydrochloride]"
  value: "> 100000 nM"
- compound: "NC/C(=C\\F)Cn1ncn(Cc2ccc(-c3ccc4oc(=O)[nH]c4c3)s2)c1=O [Example 72, hydrochloride]"
  value: "≥ 100000 nM"
- compound: "NC/C(=C\\F)Cn1ncn(Cc2ccc(-c3ccc4ocnc4c3)s2)c1=O [Example 62, hydrochloride]"
  value: "2100 nM"
- compound: "NC/C(=C\\F)Cn1ncn(Cc2ccc(-c3ccc4c(c3)NC(=O)CO4)s2)c1=O [Example 90, hydrochloride]"
  value: "24000 nM"
- compound: "NC/C(=C\\F)Cn1ncn(Cc2ccc(-c3ccc4c(c3)COC4)s2)c1=O"
  value: "> 100000 nM"
- compound: "NC/C(=C\\F)Cn1ncn(Cc2ccc(-c3cnc4[nH]ccc4c3)s2)c1=O [Example 65, hydrochloride]"
  value: "> 100000 nM"
- compound: "CN1CCOc2cc(-c3ccc(Cn4cnn(C/C(=C/F)CN)c4=O)s3)ccc21 [Example 103, hydrochloride]"
  value: "15000 nM"
- compound: "CN1CCNc2cc(-c3ccc(Cn4cnn(C/C(=C/F)CN)c4=O)s3)ccc21"
  value: "4000 nM"
- compound: "CN(C)c1ccc(-c2ccc(Cn3cnn(C/C(=C/F)CN)c3=O)s2)cc1 [Example 5, hydrochloride]"
  value: "> 100000 nM"
